Ref: patent US10544103B2

// reported inhibition at 0.01 µM per item
Biological target: 5-HT2B receptor (Homo sapiens)
Construct: host or cells: CHO-K1
Experiment: 5-HT2B receptor antagonism, inhibition of 5-HT stimulated IP-1 accumulation (HTRF) in CHO-K1 cells
Format: cell-based
Settings: 0.01 uM, % inhibition of 5-HT (5 nM) induced effect
Give just the number in %; leave the unit off.

In the examples that follow, each entry is paired with its recorded inhibition at 0.01 µM.
- molecule: "CC1CN(C(=N)N)N=C1c1ccccc1O.Cl (stereo not drawn)"
  tested_system: "5-HT2B receptor (Homo sapiens)"
  readout_units: "%"
  inhibition at 0.01 µM: 70
- molecule: "Cl.N=C(N)N1CCC(c2ccccc2O)=N1"
  tested_system: "5-HT2B receptor (Homo sapiens)"
  readout_units: "%"
  inhibition at 0.01 µM: 14
- molecule: "C[C@@H]1CN(C(=N)N)N=C1c1cccc(Cl)c1O (single isomer, unassigned)"
  tested_system: "5-HT2B receptor (Homo sapiens)"
  readout_units: "%"
  inhibition at 0.01 µM: 97

Input: Item C[C@@H]1CN(C(=N)N)N=C1c1ccccc1O (single isomer, unassigned) has what recorded inhibition at 0.01 µM?
Output: 75

Input: Similarly, COc1ccccc1C1=NN(C(=N)N)CC1 ?
Output: 2

Input: Now the molecule N=C(N)N1CCC(c2cccc3ccccc23)=N1
Output: 20

Input: Same again, this time with N=C(NCc1ccccc1)N1CCC(c2ccccc2O)=N1
Output: 28

Input: What do we get for C[C@@H]1CN(C(=N)NCc2ccccc2)N=C1c1cccc(Cl)c1O (single isomer, unassigned) ?
Output: 99

Input: Input N=C(NCc1ccccc1)N1CCC(c2ccccc2Cl)=N1
Output: 10

---

Quick list: inhibition at 0.01 µM per entry.
Biological target: 5-HT2B receptor (Homo sapiens, UniProt P41595)
Construct: host or cells: CHO-K1
Sequence (P41595 whole entry): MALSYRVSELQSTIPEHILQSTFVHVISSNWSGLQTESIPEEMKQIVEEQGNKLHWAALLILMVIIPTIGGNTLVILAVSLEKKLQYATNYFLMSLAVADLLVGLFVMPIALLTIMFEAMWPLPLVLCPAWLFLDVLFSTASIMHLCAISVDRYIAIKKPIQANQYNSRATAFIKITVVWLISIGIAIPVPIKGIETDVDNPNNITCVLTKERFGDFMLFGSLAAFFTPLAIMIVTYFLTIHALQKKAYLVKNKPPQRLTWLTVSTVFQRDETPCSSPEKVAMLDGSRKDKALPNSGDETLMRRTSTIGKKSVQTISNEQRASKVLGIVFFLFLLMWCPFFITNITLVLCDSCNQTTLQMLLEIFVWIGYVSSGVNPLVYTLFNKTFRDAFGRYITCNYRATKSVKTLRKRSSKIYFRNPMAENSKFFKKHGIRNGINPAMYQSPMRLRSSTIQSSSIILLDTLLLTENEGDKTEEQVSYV
Experiment: 5-HT2B receptor binding, 3H-LSD ligand displacement assay
Conditions: 0.01 uM compound
Field format: number, assumed %, no unit text.

- compound: "COc1ccccc1C1=NN(C(=N)NCC(F)(F)F)CC1C (stereo not drawn)"
  measure_name: "inhibition at 0.01 µM"
  reported_measurement: 17
- compound: "COc1ccccc1C1=NN(C(=N)Nc2ccc(Cl)cc2)CC1C (stereo not drawn)"
  measure_name: "inhibition at 0.01 µM"
  reported_measurement: 44

Input: Could you tell me which inhibition at 0.01 µM is on file for CC1CN(C(=N)NCc2ccccc2Cl)N=C1c1ccccc1O (stereo not drawn) ?
Output: 95

---

Molecular target: 5-HT2B receptor (Homo sapiens)
Construct: host or cells: CHO-K1
Assay: 5-HT2B receptor binding, 3H-LSD ligand displacement assay
Details: 0.1 uM compound
measure_name: inhibition at 0.1 µM (%)
Answer format: numeric, % implied, no suffix.

- compound: "N=C(N)N1CCC(c2ccccc2N)=N1"
  readout_units: "%"
  inhibition at 0.1 µM: 21

Input: # query: inhibition at 0.1 µM of entry COc1c(Cl)cccc1C1=NN(C(=N)NC2CC2)CC1C (stereo not shown)
Output: 83

Input: Ok, now N=C(N)N1CCC(c2coc3ccccc23)=N1
Output: 40

Input: Also COc1ccc(NC(=N)N2CC(C)C(c3ccccc3O)=N2)cc1 (stereo not shown) , if possible.
Output: 106

Input: Same for N=C(N)N1CCC(c2cccc3ccsc23)=N1
Output: 75

Input: Same again, this time with CC1CC(c2cccc3ccccc23)=NN1C(=N)N (stereo not shown)
Output: 68

Input: Try this compound too: CC1CN(C(=N)NC2CC2)N=C1c1cccc(Cl)c1O (stereo not shown)
Output: 100

---

Molecular target: 5-HT2B receptor (Homo sapiens, UniProt P41595)
Construct: host or cells: CHO-K1
Experiment: 5-HT2B receptor antagonism, inhibition of 5-HT stimulated IP-1 accumulation (HTRF) in CHO-K1 cells
Format: cell-based
Conditions: 1 uM, % inhibition of 5-HT (5 nM) induced effect
A collection of compounds and their measured inhibition at 1 µM
Numeric only. Scale: %

- compound: "N=C(NCc1ccccc1)N1CCC(c2ccccc2O)=N1"
  measure_name: "inhibition at 1 µM"
  reported_measurement: 108
- compound: "CC1CN(C(=N)N)N=C1c1ccccc1O.Cl (stereo not drawn)"
  measure_name: "inhibition at 1 µM"
  reported_measurement: 100
- compound: "COc1ccccc1C1=NN(C(=N)N)CC1"
  measure_name: "inhibition at 1 µM"
  reported_measurement: 72
- compound: "N=C(NCc1ccccc1)N1CCC(c2ccccc2Cl)=N1"
  measure_name: "inhibition at 1 µM"
  reported_measurement: 104
- compound: "C[C@@H]1CN(C(=N)N)N=C1c1ccccc1O (single isomer, unassigned)"
  measure_name: "inhibition at 1 µM"
  reported_measurement: 102
- compound: "C[C@@H]1CN(C(=N)N)N=C1c1cccc(Cl)c1O (single isomer, unassigned)"
  measure_name: "inhibition at 1 µM"
  reported_measurement: 98
- compound: "N=C(N)N1CCC(c2cccc3ccccc23)=N1"
  measure_name: "inhibition at 1 µM"
  reported_measurement: 103
- compound: "Cl.N=C(N)N1CCC(c2ccccc2O)=N1"
  measure_name: "inhibition at 1 µM"
  reported_measurement: 96

Input: Record request: inhibition at 1 µM value, item C[C@@H]1CN(C(=N)NCc2ccccc2)N=C1c1cccc(Cl)c1O (single isomer, unassigned)
Output: 95

---

Target: 5-HT2B receptor (Homo sapiens)
Construct: host or cells: CHO-K1
Assay: 5-HT2B receptor binding, 3H-LSD ligand displacement assay
Conditions: 1 uM compound
The entries below are paired with their reported inhibition at 1 µM.
A number alone suffices; assume %.

- molecule: "N=C(N)N1CCC(c2cccc3ccccc23)=N1"
  tested_system: "5-HT2B receptor (Homo sapiens)"
  readout_units: "%"
  inhibition at 1 µM: 99
- molecule: "Cc1c(C2=NN(C(=N)N)C(C)C2)oc2ccccc12 (centres unmarked)"
  tested_system: "5-HT2B receptor (Homo sapiens)"
  readout_units: "%"
  inhibition at 1 µM: 95
- molecule: "CC1CN(C(=N)N)N=C1c1c[nH]c2ccccc12 (centres unmarked)"
  tested_system: "5-HT2B receptor (Homo sapiens)"
  readout_units: "%"
  inhibition at 1 µM: 98

Input: Recall the recorded inhibition at 1 µM for N=C(N)N1CCC(c2cccc3ccsc23)=N1 with 5-HT2B receptor (Homo sapiens) and state it.
Output: 95

Input: Please do the same for CC1CC(c2cccc3ccccc23)=NN1C(=N)N (centres unmarked) as well.
Output: 97

Input: Consider next the molecule COc1ccccc1C1=NN(C(=N)N)CC1C (centres unmarked) in the same way.
Output: 89

Input: Let us now turn to COc1c(F)cccc1C1=NN(C(=N)N)CC1C (centres unmarked)
Output: 92

Input: Next entry: N=C(N)N1N=C(c2ccccc2Cl)C2CCCC21 (centres unmarked)
Output: 88

---

Recorded activation at 0.001 µM, one value per entry.
Biological target: 5-HT2B receptor (Homo sapiens, UniProt P41595)
Construct: host or cells: CHO-K1
Test: 5-HT2B receptor agonism, IP-1 accumulation in CHO-K1 cells without prior 5-HT stimulation
Assay type: cell-based
Conditions: 0.001 uM, % of IP-1 accumulation induced by 5-HT (1 uM)
Provide only the numeric value, understood in %.

Recorded activation at 0.001 µM, per entry:
- molecule: "CC1CN(C(=N)N)N=C1c1ccccc1O.Cl (stereo not shown) [Example 17]"
  measure_name: "activation at 0.001 µM"
  reported_measurement: 1
- molecule: "N=C(NCc1ccccc1)N1CCC(c2ccccc2O)=N1 [Example 22]"
  measure_name: "activation at 0.001 µM"
  reported_measurement: -5
- molecule: "C[C@@H]1CN(C(=N)N)N=C1c1cccc(Cl)c1O (single isomer, unassigned) [Example 73]"
  measure_name: "activation at 0.001 µM"
  reported_measurement: 4

Next up:
Input: Value lookup for activation at 0.001 µM; key = N=C(N)N1CCC(c2cccc3ccccc23)=N1 [Example 9]
Output: -3

---

Target: 5-HT2B receptor (Homo sapiens)
Construct: host or cells: CHO-K1
Assay: 5-HT2B receptor antagonism, inhibition of 5-HT stimulated IP-1 accumulation (HTRF) in CHO-K1 cells
Assay type: cell-based
Conditions: 10 uM, % inhibition of 5-HT (5 nM) induced effect
Description: 5-HT2B receptor antagonism (performed at Eurofins Panlabs Taiwan, Ltd.) was determined in CHO-K1 cells expressing human receptor protein as inhibition of 5-HT (5 nM) stimulated IP-1 accumulation measured by HTRF quantitation. SB 206553 was used as a standard reference compound. The antagonistic response is expressed as % inhibition of the 5-HT induced effect.
measure_name: inhibition at 10 µM (%)
Kindly provide the numeric value in % only, without the unit symbol.

Use these answered entries as a reference point.
- compound: "N=C(NCc1ccccc1)N1CCC(c2ccccc2O)=N1"
  inhibition at 10 µM [%]: 110
- compound: "COc1ccccc1C1=NN(C(=N)N)CC1"
  inhibition at 10 µM [%]: 107
- compound: "N=C(NCc1ccccc1)N1CCC(c2ccccc2Cl)=N1"
  inhibition at 10 µM [%]: 113
- compound: "Cl.N=C(N)N1CCC(c2ccccc2O)=N1"
  inhibition at 10 µM [%]: 103
- compound: "CC1CN(C(=N)N)N=C1c1ccccc1O.Cl (stereo not drawn)"
  inhibition at 10 µM [%]: 103

Input: State the recorded inhibition at 10 µM for this entry: N=C(N)N1CCC(c2cccc3ccccc23)=N1
Output: 116
